Data credit: patent US20110178154A1

- Tested on: A2780CP20 ovarian cancer cell line
- Method Description: MTS proliferation assay: cisplatin sensitivity after siRNA pretreatment
- Format: cell-based
d = 2'-deoxy (DNA); r = 2'-OH (RNA)
Metric: cell sensitivity to cisplatin when compared to cells treated with siNEG

Substance	Recorded Measurement
siREV3L-2: synthetic siRNA against REV3L (exon 17), Qiagen cat #SI00045633, SEQ ID NO:5 sense and SEQ ID NO:6 antisense (sense CACUGGAAUUAAUGCACAATT; antisense UUGUGCAUUAAUUCCAGUGTG; sugars from the 5' end r19 d2, backbone not given here)	significantly increased
siREV3L-1: synthetic siRNA against REV3L (exon 18), Qiagen cat #SI00045626, SEQ ID NO:2 sense and SEQ ID NO:3 antisense (sense GGAUGUAGUCAAACUGCAATT; antisense UUGCAGUUUGACUACAUCCAG; sugars from the 5' end r19 d2, backbone not given here)	significantly increased
siPOLH-2: synthetic siRNA against POLH (exon 10), Qiagen cat #SI00089012, SEQ ID NO:8 sense and SEQ ID NO:9 antisense (sense CCAUUUAGGUGCUGAGUUATT; antisense UAACUCAGCACCUAAAUGGAG; sugars from the 5' end r19 d2, backbone not given here)	significantly increased
